system_tested: Pim-1 Y53H (Homo sapiens, UniProt P11309, Y53H)
Construct: hexahistidine tag (TEV-cleavable) (cleaved yes); made in house; host or cells: E. coli BL21(DE3)
Sequence (P11309 whole entry Y53H): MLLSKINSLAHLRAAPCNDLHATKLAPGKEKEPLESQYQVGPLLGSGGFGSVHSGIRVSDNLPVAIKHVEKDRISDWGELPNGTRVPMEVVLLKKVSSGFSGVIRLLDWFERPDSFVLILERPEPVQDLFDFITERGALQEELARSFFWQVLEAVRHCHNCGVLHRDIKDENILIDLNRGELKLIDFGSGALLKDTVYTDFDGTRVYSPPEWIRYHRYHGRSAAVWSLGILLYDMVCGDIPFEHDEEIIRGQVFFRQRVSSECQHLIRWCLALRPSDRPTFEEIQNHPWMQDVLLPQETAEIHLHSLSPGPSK
procedure_text: Inhibitor binding by temperature shift assay (SYPRO Orange)
applied_conditions: Pim-1 Y53H 2 µM, compound 10 µM
Method: Thermal melting experiments were carried out using an Mx3005p Real Time PCR machine (Stratagene). Proteins were buffered in 10 mM HEPES pH 7.5, 500 mM NaCl and assayed in a 96-well plate at a final concentration of 2 µM in 20 µl volume. Compounds were added at a final concentration of 10 µM. SYPRO Orange (Molecular Probes) was added as a fluorescence probe at a dilution of 1∶1000. […] Data was analysed as previously described.
measured_quantity: ΔTm (K)
# unit: K | format: bare number

Req: Report ΔTm for "CC(=O)c1cccc(-c2cnc3ccc(N[C@H](CO)C(C)C)nn23)c1" tested on Pim-1 Y53H (Homo sapiens, UniProt P11309, Y53H).
Resp: 4.6

Req: Report ΔTm for CCN1CCC2(CC1)NC(=O)c1c(c3ccc(Cl)c(Cl)c3n1C)C2C#N (stereo not shown) [K01786a] tested on Pim-1 Y53H (Homo sapiens, UniProt P11309, Y53H).
Resp: 8.2

Req: Report ΔTm for "CC(C)[C@@H](CO)Nc1ccc2ncc(-c3cccc(Cl)c3)n2n1" tested on Pim-1 Y53H (Homo sapiens, UniProt P11309, Y53H).
Resp: 5.6

Req: Report ΔTm for "FC(F)(F)Oc1cccc(-c2cnc3ccc(NCC4CC4)nn23)c1" tested on Pim-1 Y53H (Homo sapiens, UniProt P11309, Y53H).
Resp: 5.5
